Molecular target: Cytochrome P450 2C9 (Homo sapiens)
Experiment: Cytochrome panel assay with activity outcomes
Details: recombinant CYP, pro-luciferin dealkylation, luminescence, p450-cyp2c9; series mostly up to 57.1 µM
Hit rate of the full screen: of about 16,000 compounds, about 4,000 (25%) were called active. About 26% were inconclusive and are not listed. Calls follow the shape of the dose curve; as a rule, active = well fitted curve in the direction sought with a large enough effect; inconclusive = small, poorly fitted or top-dose-only effect, or effect the other way; inactive = no such curve, though single readings can be large or run the other way. Only a sample is shown.
The reply should name one outcome from t (active), f (inactive)

Reference set (2 entries):
CCNc1ncc2nc(-c3cc(F)cc(F)c3)c(=O)n(-c3ccccc3)c2n1 | f
N#Cc1cc(-c2ccccc2)cnc1Sc1ccc(Cl)cc1 | t

Query :: Please indicate how the test categorized `COc1ccc(C(=O)N2CCC3(CC2)CCN(c2ncccn2)CC3)cc1` .
Result :: f

Query :: # fetch the recorded call for `COCC(=O)N1CCC2(CC1)CCN(c1ccccn1)CC2` here
Result :: f

Query :: # fetch the recorded call for CCC(Sc1nc(=O)cc(N)n1CCc1ccccc1)C(=O)Nc1ccccc1C#N (stereo not drawn) here
Result :: t

Query :: Just curious, what result did `CCNc1ncc2nc(CCc3ccccc3)c(=O)n(C)c2n1` get here?
Result :: t

Query :: Per the assay record, what outcome was assigned to `C[C@@]12CCC(=O)C=C1CC[C@@H]1[C@@H]2[C@H](O)C[C@]2(C)[C@@H]1CC[C@]2(O)C(=O)COC(=O)CCC(=O)O` ?
Result :: f

Query :: Dear all, I need the recorded test outcome for CC(C)C(C(=O)O)N1C(=O)/C(=C/C=C/c2ccco2)SC1=S (stereo not drawn) , thank you.
Result :: t

Query :: // param item: `Cn1cccc1C(=O)N1CCC[C@@]2(CCN(c3ccccn3)C2)C1` ; yields the recorded call
Result :: f

Query :: Dear all, I need the recorded test outcome for `C#CCN1C(C)=C(C(=O)OC)[C@@H](c2cccc([N+](=O)[O-])c2)C(C(=O)OCC)=C1C` , thank you.
Result :: t

Query :: Dear all, I need the recorded test outcome for CC(C)(C)NC(=O)C(c1ccccn1)N(C(=O)C1CSC(=O)C1)c1ccc(F)cc1 (stereo not drawn) , thank you.
Result :: f

Query :: Hello, I am checking results. What call was entered for `CN(C)CC[C@H](c1ccc(Cl)cc1)c1ccccn1` ?
Result :: f

Query :: Could you kindly confirm the outcome this assay logged for `CCOC(=O)/C(=C/Nc1ccccc1)[N+](=O)[O-]` ?
Result :: f

Query :: // param item: `COc1ccc(S(=O)(=O)NCc2ccc(C(=O)N3CCN(c4ccccn4)CC3)cc2)cc1` ; yields the recorded call
Result :: t

Query :: Called result for `Clc1ccccc1NN(Cc1ccncc1)c1ccccc1Cl`
Result :: t

---

Target: Cytochrome P450 2C9 (Homo sapiens)
Experiment: Cytochrome panel assay with activity outcomes
Settings: recombinant CYP, pro-luciferin dealkylation, luminescence, p450-cyp2c9; series mostly up to 57.1 µM
In all, about 16,000 compounds went through this assay and about 4,000 (25%) were called active. Inconclusive results (about 26%) are left out. These entries were drawn from the full list.
valueType: AC50

A selection of reference data follows.
COc1ccc(NC(=O)N2CCCC3(CCN(C(=O)c4c(C)noc4C)CC3)C2)cc1 | inactive
Cc1ccc2nc(N3CCN(S(=O)(=O)c4ccc5c(c4)OCCO5)CC3)c(C#N)cc2c1 | 2820 nM (active)
O=C(O)CCC(=O)N1CCOc2ccc(Cl)cc21 | inactive
O=C(c1ccc2c(c1)OCCO2)C1CCN(S(=O)(=O)c2ccccc2F)CC1 | inactive
Cc1cc(C)cc(Oc2coc3cc(OC(=O)c4cccs4)ccc3c2=O)c1 | inactive

Documented AC50 of `Cc1cc(=O)[nH]c(SCC(=O)Nc2nc3c(s2)CCCC3)n1` : 15800 nM (active)

What the record says about `Cc1ccc(S(=O)(=O)CCC(=O)Nc2nc3c(s2)CCCC3)cc1` : AC50 is 1120 nM (active)

Briefly, AC50 measured for `Nc1ncncc1-c1ccc([N+](=O)[O-])cc1` : inactive

AC50 for `CCOc1ccc(N(CC(=O)NCc2ccc(OC)cc2)S(=O)(=O)c2c(C)noc2C)cc1` is inactive

What the record says about `CCNc1ncc2nc(-c3ccc(OC)cc3)c(=O)n(-c3ccc(OC)cc3)c2n1` : AC50 is inactive

---

Molecular target: Cytochrome P450 2C9 (Homo sapiens)
Experiment: Cytochrome panel assay with activity outcomes
Conditions: recombinant CYP, pro-luciferin dealkylation, luminescence, p450-cyp2c9; series mostly up to 57.1 µM
The campaign covered roughly 16,000 compounds. About 4,000 (25%) were called active. About 26% were inconclusive and are not listed. Calls come from the whole dose curve; as a rule, active = well fitted curve in the direction sought with a large enough effect; inconclusive = small, poorly fitted or top-dose-only effect, or effect the other way; inactive = no such curve, though single readings can be large or run the other way. Not all results are given here.
Would you mind answering with one of these outcomes? active, inactive

Cc1cc(N2CCN(c3nc4ccccc4s3)CC2)n2ncnc2n1 | inactive

Query :: Please let me know the test result on file for `CN=C(NC#N)NCCSC[C@H]1N=CN=C1C` .
Result :: inactive

Query :: Fill in: this test's call for `CCn1nc(C(=O)Nc2ccccc2C)c(Cl)c1Cl` is ___
Result :: inactive

---

Target: Cytochrome P450 2C9 (Homo sapiens) (UniProt P11712)
Sequence (P11712 whole entry, looked up): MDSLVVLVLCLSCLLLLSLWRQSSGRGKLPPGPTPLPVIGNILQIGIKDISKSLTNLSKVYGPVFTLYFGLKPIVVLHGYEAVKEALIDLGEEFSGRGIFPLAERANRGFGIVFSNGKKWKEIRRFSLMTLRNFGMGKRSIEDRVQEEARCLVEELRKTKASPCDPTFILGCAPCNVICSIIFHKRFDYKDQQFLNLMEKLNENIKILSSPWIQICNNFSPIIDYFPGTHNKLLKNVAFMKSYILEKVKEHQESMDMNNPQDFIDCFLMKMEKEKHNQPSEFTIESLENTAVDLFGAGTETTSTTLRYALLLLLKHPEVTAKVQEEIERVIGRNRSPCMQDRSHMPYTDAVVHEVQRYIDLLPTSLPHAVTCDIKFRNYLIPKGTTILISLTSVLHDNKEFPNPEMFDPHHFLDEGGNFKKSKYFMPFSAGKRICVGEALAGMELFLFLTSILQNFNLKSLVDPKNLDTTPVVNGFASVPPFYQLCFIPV
Test: Cytochrome panel assay with activity outcomes; as to activity, negative = inhibition: % is scaled to controls: 0 for no effect and ±100 for the full control effect
Details: recombinant CYP, pro-luciferin dealkylation, luminescence, p450-cyp2c9; series mostly up to 57.1 µM
Among all 16,000 compounds or so, about 4,000 (25%) were called active. Another 26% or so got no clear call; they are omitted. These entries were drawn from the full list.
activity, negative = inhibition: recorded values

The following compounds have reported results that may help.
COc1ccccc1-c1nccc(NCc2cnc(C)cn2)n1 | 19.3% [at 2.29 µM] (inactive)
CC1(C)N=C(N)N=C(N)N1c1cccc(OCc2cccc([N+](=O)[O-])c2)c1 | -1.87% [at 11.4 µM] (inactive)
Cn1c(=O)c2[nH]c([C@@H]3CC(=O)C[C@H](c4nc5c([nH]4)c(=O)n(C)c(=O)n5C)N3)nc2n(C)c1=O | 2.38% [at 11.4 µM] (inactive)
CN(C)c1ccc(-c2cncnc2Nc2ccccc2)cc1 | -6.76% [at 2.29 µM] (inactive)
CO[C@H]1COC(=O)[C@@H](Cc2ccccc2)NC(=O)[C@@H](C)COC(=O)C/C=C\[C@@H]1C | 15.1% [at 11.4 µM] (inactive)
Cn1c(=O)n2n(c1=O)[C@H]1[C@H](O)[C@H]3O[C@H]3C(=O)[C@H]1CC2 | 7.6% [at 11.4 µM] (inactive)

Reported activity, negative = inhibition ( `O=C(O)CCSCc1ccccc1` ) = 24.2% [at 11.4 µM] (inactive)

So, `Nc1nc(N)[n+]([O-])c(N)c1NCO` ? Its activity, negative = inhibition was 6.07% [at 11.4 µM] (inactive)

Short answer for `N#C/C(=C\Nc1ccccn1)C(=O)C1CC1` : activity, negative = inhibition was 2.34% [at 11.4 µM] (inactive)

Lab note: measured activity, negative = inhibition of `Cc1noc(C)c1-c1ccc2ncnc(NCCN3CCOCC3)c2c1` was -1.53% [at 2.29 µM] (inactive)

Entry `NS(=O)(=O)c1ccc(NCc2cnc3ccccc3n2)cc1` , activity, negative = inhibition reported as 1.39% [at 11.4 µM] (inactive)

---

Target: Cytochrome P450 2C9 (Homo sapiens)
Test: Cytochrome panel assay with activity outcomes
Details: recombinant CYP, pro-luciferin dealkylation, luminescence, p450-cyp2c9; series mostly up to 57.1 µM
The whole screen tested about 16,000 compounds, of which about 4,000 (25%) were called active. About 26% were inconclusive and are not listed. Calls follow the shape of the dose curve; as a rule, active = well fitted curve in the direction sought with a large enough effect; inconclusive = small, poorly fitted or top-dose-only effect, or effect the other way; inactive = no such curve, though single readings can be large or run the other way. The list is a sample of the results.
Write down one outcome, taken from active, inactive

Record excerpt, results attached:
Cc1cc(C)n(-c2nc(NCC(C)O)c3c4c(sc3n2)COC(C)(C)C4)n1 (centres undefined) | active
Cc1ccc(-c2csc(C(C#N)=C3CCCC3)n2)cc1 | active
Cc1c2cccc(Sc3ccccc3)c2c2c3c(cccc13)[S+](c1ccccc1)C2 (centres undefined) | active

Query :: Check the results log: what was the call for `O=C(N/N=C/c1cccc([N+](=O)[O-])c1)c1cc2c(ccc3ccccc32)o1` ?
Result :: inactive

Query :: How did this test come out for `Cc1ccc(OCC(=O)Nc2ccc(S(=O)(=O)Nc3onc(C)c3C)cc2)cc1` ?
Result :: active

---

Target: Cytochrome P450 2C9 (Homo sapiens)
Test: Cytochrome panel assay with activity outcomes
Details: recombinant CYP, pro-luciferin dealkylation, luminescence, p450-cyp2c9; series mostly up to 57.1 µM
The whole screen tested about 16,000 compounds, of which about 4,000 (25%) were called active. Another 26% or so got no clear call; they are omitted. A selection follows.
valueType: AC50

Cc1cccc(C)c1NC(=O)CCN1C(=O)C2C3CCC(C3)C2C1=O (centres undefined) | inactive
Cc1nc2c(n1C1CCCCC1)C(=O)c1ccccc1C2=O | 15.8 µM (active)
CCc1cc(C(c2ccccc2OC)N2CCOCC2)c(NC(=O)c2ccccc2)s1 (centres undefined) | 1.58 µM (active)
Cc1ccc(C2C3=C(CCCC3=O)Nc3nc(SCC(=O)NCc4ccco4)[nH]c(=O)c32)cc1 (centres undefined) | 5.01 µM (active)
COc1cc(C(=O)Nc2nc3ccc4nc(C)sc4c3s2)cc(OC)c1OC | inactive

The value of AC50 measured for the molecule `Cc1nc2ccc3nc(NC(=O)c4ccc(S(=O)(=O)N5CCOCC5)cc4)sc3c2s1` turned out to be inactive

Summary for this molecule, `CO[C@]1(NC(=O)[C@H](C(=O)O)c2ccc(O)cc2)C(=O)N2C(C(=O)O)=C(CSc3nnnn3C)CO[C@H]21` : AC50 is inactive

AC50 for `O=C(NC(=S)N(Cc1ccccc1)Cc1ccccc1)c1ccccc1F` is 0.891 µM (active)

According to the records, this molecule `CN1CCN(NC(=O)c2ccccc2F)CC1` displays AC50 of inactive

Numbers sourced from PubChem BioAssay AID1851.
